- Procedure Text: Acute toxicity in the rat (LD50, Litchfield and Wilcoxon)
- Format: in vivo
- Condition Label: in vivo, sc, subcutaneous, 7 days observation
# LD50 at 168 h listing for each entry below
Assay Readout: LD50 at 168 h (mg/kg)

- CC(=O)Oc1ccccc1C(=O)N[C@@H](CSCC(=O)O)C(=O)O: 4500
- CC(=O)Oc1ccccc1C(=O)OC(=O)CSC[C@H](N)C(=O)OC(=O)c1ccccc1OC(C)=O: 4200
